Biological target: PMM2 (Homo sapiens, UniProt O15305)
Sequence (O15305 1-246): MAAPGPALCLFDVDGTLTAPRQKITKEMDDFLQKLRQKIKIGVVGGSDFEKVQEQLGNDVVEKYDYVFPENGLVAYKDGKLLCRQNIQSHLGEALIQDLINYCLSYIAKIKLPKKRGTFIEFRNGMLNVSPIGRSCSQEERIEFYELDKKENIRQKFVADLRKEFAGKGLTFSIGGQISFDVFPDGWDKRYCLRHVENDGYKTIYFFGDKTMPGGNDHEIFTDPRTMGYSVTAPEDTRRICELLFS
Quantity measured: IC50
Write the numeric value and append its unit.

I am curious: what IC50 value has been reported for O=C(COP(=O)(O)O)[C@@H](O)[C@H](O)[C@H](O)COP(=O)(O)O [FBP, fructose-1,6-bisphosphate] ?
7.91 mM

----------
Target: recombinant PGAM1 (Homo sapiens, UniProt P18669)
Sequence (P18669 whole entry): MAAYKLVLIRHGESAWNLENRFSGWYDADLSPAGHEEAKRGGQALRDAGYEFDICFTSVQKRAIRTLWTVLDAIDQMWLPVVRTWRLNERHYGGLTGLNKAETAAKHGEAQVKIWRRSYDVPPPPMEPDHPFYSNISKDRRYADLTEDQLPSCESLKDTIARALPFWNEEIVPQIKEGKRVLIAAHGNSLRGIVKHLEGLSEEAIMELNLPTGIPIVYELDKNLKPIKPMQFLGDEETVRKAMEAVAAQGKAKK
Experiment: Microscale thermophoresis
Quantity measured: pKd
As a rule, pKd stands for the negative log10 of the concentration, concentration in M.

I am curious: what pKd value has been reported for O=C(COP(=O)(O)O)[C@@H](O)[C@H](O)[C@H](O)COP(=O)(O)O [FBP, fructose-1,6-bisphosphate] ?
3.78

----------
Target: PGM1 (Homo sapiens)
Sequence (P36871 1-580 isoform P36871-2): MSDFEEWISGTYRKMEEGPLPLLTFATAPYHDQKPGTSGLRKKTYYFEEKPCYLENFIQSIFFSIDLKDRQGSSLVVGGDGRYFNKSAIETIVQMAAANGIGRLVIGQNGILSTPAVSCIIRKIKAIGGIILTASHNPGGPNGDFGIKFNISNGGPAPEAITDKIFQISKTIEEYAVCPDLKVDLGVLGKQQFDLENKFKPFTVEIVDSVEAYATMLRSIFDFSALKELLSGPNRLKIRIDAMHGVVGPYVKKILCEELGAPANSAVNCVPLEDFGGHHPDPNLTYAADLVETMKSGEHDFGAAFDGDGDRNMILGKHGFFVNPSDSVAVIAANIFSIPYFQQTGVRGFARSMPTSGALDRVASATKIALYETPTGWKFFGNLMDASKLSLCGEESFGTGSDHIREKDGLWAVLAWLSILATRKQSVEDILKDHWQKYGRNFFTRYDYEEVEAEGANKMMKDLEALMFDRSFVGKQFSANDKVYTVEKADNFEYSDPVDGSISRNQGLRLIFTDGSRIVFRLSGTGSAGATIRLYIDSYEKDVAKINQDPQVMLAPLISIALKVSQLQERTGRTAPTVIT
Experiment: Microscale thermophoresis
Assay type: binding
Quantity measured: pKd
As a rule, pKd stands for the negative log10 of the concentration, concentration in M.

Fill in the recorded pKd for this compound, with PGM1 (Homo sapiens) as test system: O=C(COP(=O)(O)O)[C@@H](O)[C@H](O)[C@H](O)COP(=O)(O)O [FBP, fructose-1,6-bisphosphate]
3.63
